- Assayed system: human activated kallikrein enzyme (Homo sapiens, UniProt P03952)
- Sequence (P03952 391-638 limits assumed): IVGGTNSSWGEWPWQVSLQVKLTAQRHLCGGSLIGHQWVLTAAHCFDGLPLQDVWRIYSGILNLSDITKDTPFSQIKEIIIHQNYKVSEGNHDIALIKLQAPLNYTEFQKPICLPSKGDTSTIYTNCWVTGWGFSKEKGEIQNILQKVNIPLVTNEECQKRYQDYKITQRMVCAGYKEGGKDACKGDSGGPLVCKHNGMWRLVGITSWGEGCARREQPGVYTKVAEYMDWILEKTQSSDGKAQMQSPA
- Sequence (P03952 20-390 partner limits assumed): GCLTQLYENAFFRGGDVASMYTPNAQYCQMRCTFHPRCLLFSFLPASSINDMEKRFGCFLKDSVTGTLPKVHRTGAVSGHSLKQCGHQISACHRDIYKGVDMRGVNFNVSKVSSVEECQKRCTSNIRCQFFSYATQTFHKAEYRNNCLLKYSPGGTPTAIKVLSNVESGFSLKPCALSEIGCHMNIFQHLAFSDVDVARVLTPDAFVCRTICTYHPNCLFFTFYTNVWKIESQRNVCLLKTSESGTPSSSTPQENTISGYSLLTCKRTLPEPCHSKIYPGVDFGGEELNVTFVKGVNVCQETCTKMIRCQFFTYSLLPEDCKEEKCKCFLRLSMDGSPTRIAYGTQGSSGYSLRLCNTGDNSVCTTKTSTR
- Procedure text: Plasma kallikrein inhibition, fluorogenic PFR-AMC substrate, 500 pM activated kallikrein format
- Format: biochemical
- Test conditions: 500 pM activated kallikrein, 300 uM PFR-AMC, 30 min preincubation, 10 min reaction; read-out: Primary Dose Response Assay: Average EC50
# EC50 annotations

The examples below pair each entry with its known result.
>  <Compound>
O=C(Nc1cc(NCc2cn3cc(C4CC4)cc(C4CNC4)c3n2)ccn1)[C@H]1C[C@@H]1c1cccc(Cl)c1

>  <EC50>
< 1 nM

$$$$
>  <Compound>
Cc1ccnc([C@H]2C[C@@H]2C(=O)Nc2cc(N[C@H](C)c3cn4cc(C5CC5)cc(N5CC(=O)N(C)C5=O)c4n3)nc(OCCN(C)C)n2)n1

>  <EC50>
< 1 nM

$$$$
>  <Compound>
Cc1ccnc([C@H]2C[C@@H]2C(=O)Nc2cc(OC(C)c3cn4cc(C5CC5)cc(N5CC(=O)N(C)C5=O)c4n3)c(C)nn2)n1 (stereo partly shown)

>  <EC50>
< 1 nM

$$$$
>  <Compound>
Cc1ccnc([C@H]2C[C@@H]2C(=O)Nc2cc(N3CC(C)(O)C[C@@H]3c3cn4cc(C5CC5)ccc4n3)ncn2)n1 (stereo partly shown)

>  <EC50>
10 to 100 nM

$$$$
>  <Compound>
Cc1ccnc([C@H]2C[C@@H]2C(=O)Nc2cc(N[C@H](C)c3cn4cc(C(C)C)cc(N5CC(=O)N(C)C5=O)c4n3)ncn2)n1

>  <EC50>
< 1 nM

$$$$
>  <Compound>
Cc1ccnc([C@H]2C[C@@H]2C(=O)Nc2cc(OCc3cn4c(N5CC(=O)N(C)C5=O)cc(C5CC5)cc4n3)ncn2)n1

>  <EC50>
100 to 1000 nM

$$$$
>  <Compound>
Cc1ccnc([C@H]2C[C@@H]2C(=O)Nc2cc(N[C@H](C)c3cn4cc(C5CC5)cc(N=S(C)(C)=O)c4n3)ncn2)n1

>  <EC50>
< 1 nM

$$$$
>  <Compound>
Cc1cc(NCc2cn3cc(C4CC4)ccc3n2)cc(NC(=O)[C@H]2C[C@@H]2c2cccc(Cl)c2)n1

>  <EC50>
< 1 nM

$$$$
>  <Compound>
O=C(Nc1cc(NCc2cn3cc(C4CC4)ccc3n2)ncn1)[C@@H]1C[C@]12CCc1ccc(Cl)cc12 (racemic)

>  <EC50>
10 to 100 nM

$$$$
>  <Compound>
Cc1nc([C@H]2C[C@@H]2C(=O)Nc2cc(NCc3cn4cc(C5CC5)cc(N5CC(=O)N(C)C5=O)c4n3)ncn2)ncc1F (racemic)

>  <EC50>
< 1 nM

$$$$

Just so you know, measured EC50 for O=C(Nc1cc(NCc2cn3cc(C4CC4)cc(C4(O)CNC4)c3n2)ccn1)[C@H]1C[C@@H]1c1cccc(Cl)c1 came out at < 1 nM

Recorded result, Cc1cncc([C@H]2C[C@@H]2C(=O)Nc2cc(NCc3cn4cc(C5CC5)cc(N5CC(=O)N(C)C5=O)c4n3)ncn2)n1 (racemic) , EC50: < 1 nM

For record Cc1ccnc([C@H]2C[C@@H]2C(=O)Nc2cncc(NCc3cn4cc(C5CC5)cc(N5CC(=O)N(C)C5=O)c4n3)c2)n1 (racemic) the listed EC50 is < 1 nM
